tested on: Nucleic Acid; test: Binding of compound to calf thymus DNA was determined by an ethidium bromide displacement assay; assay type: nucleic-acid assay, Bos taurus
READOUT_TYPE: pIC50
# pIC50 = -log10(concentration in molar units)

query: What value of pIC50 has been reported for the following compound? NCCCCNCCCN [SPERMIDINE]
result: 3.76

query: What value of pIC50 has been reported for the following compound? NCCCNCCCCNCCCN [SPERMINE]
result: 4.77
